studySystem: c-kit (Homo sapiens)
Construct: human Mo7e cells which endogenously express c-kit; endogenous in cells; host or cells: human Mo7e cells (SCF-dependent promegakaryocytic leukemia line)
Sequence (P10721 26-976): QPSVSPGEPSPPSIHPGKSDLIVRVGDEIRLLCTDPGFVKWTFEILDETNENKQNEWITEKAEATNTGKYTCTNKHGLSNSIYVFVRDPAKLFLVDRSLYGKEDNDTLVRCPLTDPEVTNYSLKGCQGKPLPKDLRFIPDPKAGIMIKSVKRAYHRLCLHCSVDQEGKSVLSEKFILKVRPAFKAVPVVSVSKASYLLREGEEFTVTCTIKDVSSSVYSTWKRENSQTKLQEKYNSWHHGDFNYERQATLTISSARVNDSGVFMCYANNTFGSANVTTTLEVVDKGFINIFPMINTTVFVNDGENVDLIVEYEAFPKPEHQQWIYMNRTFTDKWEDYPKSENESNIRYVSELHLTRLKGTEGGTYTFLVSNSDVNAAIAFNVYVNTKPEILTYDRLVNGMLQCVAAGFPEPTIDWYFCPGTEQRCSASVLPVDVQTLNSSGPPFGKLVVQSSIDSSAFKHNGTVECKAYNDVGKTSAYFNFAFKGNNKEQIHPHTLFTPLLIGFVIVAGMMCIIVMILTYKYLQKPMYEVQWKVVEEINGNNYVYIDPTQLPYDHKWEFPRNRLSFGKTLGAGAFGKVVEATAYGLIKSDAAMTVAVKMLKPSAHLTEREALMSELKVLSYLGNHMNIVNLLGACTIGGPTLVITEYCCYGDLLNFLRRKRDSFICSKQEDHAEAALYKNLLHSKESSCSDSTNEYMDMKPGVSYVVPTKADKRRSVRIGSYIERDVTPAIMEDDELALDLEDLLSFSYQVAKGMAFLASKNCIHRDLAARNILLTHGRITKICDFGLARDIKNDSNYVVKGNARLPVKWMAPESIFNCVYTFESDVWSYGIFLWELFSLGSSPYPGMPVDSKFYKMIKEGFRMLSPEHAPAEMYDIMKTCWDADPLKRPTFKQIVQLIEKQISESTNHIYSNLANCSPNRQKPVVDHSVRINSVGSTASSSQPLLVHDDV
procedureDetails: Mo7e cell proliferation assay (SCF dependent proliferation)
Type: cell-based
measurementConditions: Table 2; human Mo7e cells stimulated with human recombinant SCF, 48 h, CellTiter Glo; 1% FBS (footnote)
pIC50: −log10 of the molar value.

[
  {
    "molecule": "CCNCc1nc(-c2ccc(C)c(NC(=O)c3cnc4ccccn34)c2)no1",
    "studySystem": "c-kit (Homo sapiens)",
    "pIC50": 6.66
  },
  {
    "molecule": "Cc1nc(-c2ccc(C)c(NC(=O)c3cnc4ccc(-c5ccnn5C)cn34)c2)no1",
    "studySystem": "c-kit (Homo sapiens)",
    "pIC50": 6.64
  },
  {
    "molecule": "COCCOCc1nc(-c2cc(NC(=O)c3cnc4ccccn34)c(C)cc2C)no1",
    "studySystem": "c-kit (Homo sapiens)",
    "pIC50": 6.92
  },
  {
    "molecule": "Cc1ccc2ncc(C(=O)Nc3cc(-c4noc(NCC(C)(C)O)n4)ccc3C)n2c1",
    "studySystem": "c-kit (Homo sapiens)",
    "pIC50": 6.78
  },
  {
    "molecule": "Cc1ccc(-c2noc(C(C)F)n2)cc1NC(=O)c1cnc2ccccn12 (centres unmarked)",
    "studySystem": "c-kit (Homo sapiens)",
    "pIC50": 6.92
  }
]
